Each recorded value in this set is attributed to patent US20150209342A1.

- EXPERIMENT SUMMARY: Tazarotene solubility in water, glycerin, and 70% glycerin solution
- Format: physicochemical
- CONDITIONS: glycerin, 5 °C, organic solvent or mixture
MEASURED ENDPOINT: solubility (µg/mL)

>>> test_value("CCOC(=O)c1ccc(C#Cc2ccc3c(c2)C(C)(C)CCS3)nc1 [Tazarotene]")
72.6

* * *

- EXPERIMENT SUMMARY: Tazarotene solubility in water, glycerin, and 70% glycerin solution
- Type: physicochemical
- CONDITIONS: water, 40 °C
MEASURED ENDPOINT: solubility

>>> test_value("CCOC(=O)c1ccc(C#Cc2ccc3c(c2)C(C)(C)CCS3)nc1")
"1.7 µg/mL"
